Target: novel coronavirus envelope protein (2-E) ion channel (Severe acute respiratory syndrome coronavirus 2)
Sequence (P0DTC4 whole entry, looked up): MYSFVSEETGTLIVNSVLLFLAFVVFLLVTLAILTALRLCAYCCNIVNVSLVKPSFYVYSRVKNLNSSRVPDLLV
Measured IC50 values are reported for all entries that follow.

INPUT: For the compound COc1cc2c3cc1Oc1c(OC)c(OC)cc4c1[C@H](Cc1ccc(cc1)Oc1cc(ccc1C(N)=O)C[C@H]3N(C)CC2)N(C)CC4 , report IC50.
OUTPUT: < 1 µM

INPUT: For the compound CCCCCNC(=O)c1ccc2cc1Oc1ccc(cc1)C[C@H]1c3c(cc(OC)c(OC)c3Oc3cc4c(cc3OC)CCN(C)[C@@H]4C2)CCN1C , report IC50.
OUTPUT: < 10 µM

INPUT: For the compound COc1cc2c3cc1Oc1c(OC)c(OC)cc4c1[C@H](Cc1ccc(cc1)Oc1cc(ccc1C(=O)O)C[C@H]3N(C)CC2)N(C)CC4 , report IC50.
OUTPUT: 10 to 30 µM

----------
Assay: Cytotoxicity test on Vero E6 cells (CCK8)
Format: cell-based
Conditions: African green monkey; Vero E6 cells, CCK8 kit
pIC50: −log10 of the molar value.
recorded.endpoint: pIC50

Below, 2 molecules whose answers are already recorded.
>>> df
                                 cpd_smiles   test_result
0  COc1cc2c3cc1Oc1c(OC)c(OC)cc4c1[C@H](Cc1ccc(cc1)Oc1cc(ccc1C(=O)NC(C)C)C[C@H]3N(C)CC2)N(C)CC4  4.52 to 5.00
1  CNC(=O)c1ccc2cc1Oc1ccc(cc1)C[C@H]1c3c(cc(OC)c(OC)c3Oc3cc4c(cc3OC)CCN(C)[C@@H]4C2)CCN1C        < 4.30

INPUT: For the molecule CCCCNC(=O)Oc1ccc2cc1Oc1ccc(cc1)C[C@H]1c3c(cc(OC)c(OC)c3Oc3cc4c(cc3OC)CCN(C)[C@@H]4C2)CCN1C , report pIC50.
OUTPUT: 4.30 to 4.52
